Listed next: entries and their corresponding apparent KD of K4 kissing-loop reporter.
system: K4 kissing-loop RNA reporter; test: apparent KD of K4 kissing-loop reporter; higher = weaker reporter binding; details: Eterna round: R107; input ligand: FMN 200 uM;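 note: bound reporter read as fluorescence of individual clusters on recovered sequencing chips by microscopy, with normalized cluster intensities fitted with a binding model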
Write down the numeric answer in µM and omit the unit.

Solved cases below.
Residue sequence: AAUAAAAUCACGGCCGCCACUGAUUAUUUUAUUAGGAGUGAUGUUCCUAUGACAGUAUGCCUUAACAGGACCGGGUGAAUAUUUA [#19 K4 Tryptophan B Exclusion]
Numeric readout: 0.122
//
Residue sequence: AAUAAGGUCGCCGAUACCAGCGCGGGCAGAGCAAAGCUCUGCCCGGUAGUGAUGUUACCGCGCCCUUGGCAGCGGUGGCACGACC [Omei KL Theo B SS C v6]
Numeric readout: 0.152
//
Residue sequence: AGAUGGCAGUGAUGUUGCUGUUGGAGGGAUAAGGAUAUUGGCUAAACAAGAAGGUAUCGGCGGCAUUGAGGAAUGGGAGGCGCCU [theeternabot_exclusion_KL_FMN_A_7]
Numeric readout: 0.53
//
Residue sequence: GUAGCACAGUCGGCCGCCACUGUCGGUUCUCCAGUGAUGUUGGAGUUAGUUCGUCGCAGUUCAAACAGGACCGGGACCAUUCCUU [theeternabot_exclusion_KL_Trp_B_26]
Numeric readout: 0.125
//
Residue sequence: UAUUUAGUGACGGCCGCCACUAUUGUGAUUUAAUUGUUUGAGUGAUGUUUUGAUGUUUGAUUUUGUAGGACCGGGUUAUGUGUUA [tyttmullin]
Numeric readout: 1.02

Documented apparent KD of K4 kissing-loop reporter of UCCUAGACUUAGCUAGGUAUAUAAUACGAUACCAGUCUAGAGAUAGACCCUUGGCAGCGUAGGCAGUGAUGUUGCCACUAGCUGA [Theo B SS t7a] : 0.0976

----------
tested on: MS2 coat protein; experiment: apparent KD of MS2 coat protein; designed switch direction (-1 OFF switch, 1 ON switch): -1; higher = weaker reporter binding; settings: input ligand: none
Listed next: entries and their corresponding apparent KD of MS2 coat protein.
Write down the numeric answer in nM and omit the unit.

Solved cases below.
Residue sequence: GCCGUAAAUGUGAGGAUAUACCUAUGGAUACAUAGGUAGAAGGCACAUGAGGAUCACCCAUGUUCCAAAUCGGC [Eli bmx4 4.07] (Eterna round: R97, puzzle: Brourd's mod of Exclusion 4)
U: nM
Numeric readout: 132
//
Residue sequence: AACAGUACAGGAUAUACAUGAGGAUCACCCAUGUGAGAAACCACUGGCGUACCAGAAAGUAGAAGGGUACUGGA [Moding Maslow Revisited (73) 29] (Eterna round: R96, puzzle: Exclusion 3)
U: nM
Numeric readout: 146
//
Residue sequence: AUAUACGGAGGAUAUACUUGAGGAUCACCCAAGUGGAGUCCCGUUUGGGCGGUAAAUAGUAGAAGGCCGACCCA [jl-ex3-4.43 ViennaUCT mod] (Eterna round: R97, puzzle: Exclusion 3)
U: nM
Numeric readout: 16.5

Please look at the following sequence next.
Measured apparent KD of MS2 coat protein for this entry AAUUUGCAAGCGAGAUCCCACAUGAGGAUCACCCAUGUGCUCGUCUUAUAAGGUACUGUGACGAUAGUCACGGUACC [Mat - Sensor, turn-off var - Eli Mod - D93] (Eterna round: R97, puzzle: Sensor, turn-off variant 1) on MS2 coat protein: 14.3

----------
tested on: MS2 coat protein; assay: apparent KD of MS2 coat protein, switch ON state; designed switch direction (-1 OFF switch, 1 ON switch): -1; higher = weaker reporter binding; conditions: FMN input: 0 or 200 uM; Eterna round: R93 (includes R88 designs)
Assign class by apparent KD of MS2 coat protein: not lower than 0.05 µM means MET; lower than 0.05 µM means NOT MET.

Residue sequence: AAAGGACGAGGAUAUACAUGAGGAUCACCCAUGUAAAAAACAUAGUAAAAGGGCUUGUGUAGAAGGCGUCCAAA [Meechl Ex3 2 R2 v10]
Experimental system: MS2 coat protein
Class: MET

Residue sequence: AAAAAACAUGAGGAUCACCCAUGUGAGGAUAUGAACGAAAUAAAAUAAAAAUAAAAGUUCAGAAGGCACAAAAA [Mat - Exclusion 1 - Eli mod - D11]
Experimental system: MS2 coat protein
Class: NOT MET

Residue sequence: AAAAGCAAAGGAUAUACAUGAGGAUCACCCAUGUAAAAAAGAAAAGAGUAUAUGGCAUGUAGAAGGUUGCGUGG [Rabisoxe]
Experimental system: MS2 coat protein
Class: NOT MET

Residue sequence: ACUGAUACAGGAUAUACAUGAGUGAAAAAAGUAAAUCCACUACAUGAGGAUCACCCAUGUAGAAGGGUAUCAGA [Ex2 Design 179: Random 5B]
Experimental system: MS2 coat protein
Class: MET

Residue sequence: AAAAAGUCAGGAUAUACAUGAGGAUCACCCAUGUAAAAAAAAGGGAAAAAAAAAAAGGGUAGAAGGGACGAAAA [Exclusion 3]
Experimental system: MS2 coat protein
Class: NOT MET

Query: Quick check, apparent KD of MS2 coat protein >= 0.05 µM? AAAAAGUCAGGAUAUACGAAAAAAAAAAAAAAAAAAAAAAAGUAGAAGGGACAUGAGGAUCACCCAUGUAAAAA [Exclusion 4]
Result: MET

Query: Quick check, apparent KD of MS2 coat protein >= 0.05 µM? AAUAUGUCAGGAUAUGUGUAAAGAAUAAAAGAAAUAACAACACAGAAGGGACAUGAGGAUCACCCAUGUCAACA [May 33]
Result: NOT MET

Query: Quick check, apparent KD of MS2 coat protein >= 0.05 µM? AAAAAGUCAGGAUAUGCACAAAAAAAAAUAAAAAAAAAAGUGCAGAAGGGACAUGAGGAUCACCCAUGUAAGAU [Mat - Exclusion 4 - Mayanna - D118]
Result: MET

Query: Quick check, apparent KD of MS2 coat protein >= 0.05 µM? AAAAAACAUGAGGAUCACCCAUGUGAGGAUAUGCAAAAGAAAAGAAAAGAAAGAAGAAGCAGAAGGUACAAGAA [Shepseskare Isi]
Result: NOT MET

----------
test system: MS2 coat protein; test: apparent KD of MS2 coat protein; designed switch direction (-1 OFF switch, 1 ON switch): -1; higher = weaker reporter binding; conditions: input ligand: none
Listed next: entries and their corresponding apparent KD of MS2 coat protein.
Express your answer as a number followed by its unit.

Solved cases below.
Residue sequence: UAAUAUCUGCAGGAUAUCGGUGUAGCACGCGUAUGAGAAGGGCAGACAUGAGGAUCACCCAUGUAUAGGGUCCG [BotMod 1 - Jieux - Exclusion 6] (Eterna round: R97, puzzle: Exclusion 6)
Result: 49.4 nM
--
Residue sequence: UCCGGACAUGAGGAUCACCCAUGUUAGGAUAUCUGAGGUGUGCCAGGAUCCUGGGCCCAGAGAAGGAAUAUGGC [Eternabot (L2) Solution 28] (Eterna round: R97, puzzle: Exclusion 1)
Result: 19.8 nM

Measured apparent KD of MS2 coat protein for this entry UAUACCCGAGGAUAUACAUGAGGAUCACCCAUGUAGUGAAAGCUCUAAGAGCGCUCAGGUAGAAGGCGGAUUAA [EX3 A.9] (Eterna round: R97, puzzle: Exclusion 3) on MS2 coat protein: 18.8 nM

----------
tested on: MS2 coat protein; assay: apparent KD of MS2 coat protein; designed switch direction (-1 OFF switch, 1 ON switch): 1; higher = weaker reporter binding; conditions: input ligand: none
Listed next: entries and their corresponding apparent KD of MS2 coat protein.
Write down the numeric answer in nM and omit the unit.

Solved cases below.
Residue sequence: GCUCGCACGAUGACCCACAUGAGGAUCACCCAUGUGUGUGGGCAGGAUAUCUAGAUUAAGGAUGUAGAGAAGGGUUGAGCGAGC [SameState NG3 #24] (Eterna round: R96, puzzle: Same State NG 3)
U: nM
apparent KD of MS2 coat protein: 138

Residue sequence: GUUAUACAUGAGGAUCACCCAUGUCAAUGUAGUCGAGGAUAUGGGUAGCUAUGAGGCGUACUAGAAGGCGAGGAGU [JL-ss1-3.16 ViennaUCT mod] (Eterna round: R96, puzzle: Same State 1)
U: nM
apparent KD of MS2 coat protein: 477

Documented apparent KD of MS2 coat protein of GUAAUCGUUAUAGGAUAUCAUGAGGAUUACCCAUGAGAAGGGUGAUCCCGAUCCAUAUUCAGAAAAUGAAUGUGGAUAGAUUGC [Omei NG1 A] (Eterna round: R96, puzzle: Same State NG 1) : 55.4

Documented apparent KD of MS2 coat protein of UGGUACAUGAGAGGAUAUGGGUAGAUGACAUGAGGAUCACCCAUGUUAAAGUCCGAAAGGACAUCCUAGAAGGCUCAUGUACCU [MOD of JL SSNG1 3.99] (Eterna round: R96, puzzle: Same State NG 2) : 27.7

Documented apparent KD of MS2 coat protein of UGGCUGGUGCUAGGAUAUGCAUGAGGCCUCCUCGUAGAAGGAGCGCGACAUGAGGAUCACCCAUGUAGCCGUCCGUAGACGGCU [salish99_SSNG1_r04_012] (Eterna round: R96, puzzle: Same State NG 1) : 193

Documented apparent KD of MS2 coat protein of GUUCCAAGGUGAGGAUAUGCAGAGGAUCACCCUGUAGAAGGCAUCAGGUGAGGAUAUGCAGAGGAUCACCCUGUAGAAGGCAUC [pwkr ssNG DX.10] (Eterna round: R96, puzzle: Same State NG 1) : 295

Documented apparent KD of MS2 coat protein of UGAAUAGUGAUAGGAUAUACAUGAGGAAUCCUCGUAGAAGGAUCAUAACAUGAGGAUCACCCAUGUAGCCGUCCGUAGACGGCA [Mat - Same State NG 1 - JL mod - D56] (Eterna round: R96, puzzle: Same State NG 1) : 117

Documented apparent KD of MS2 coat protein of GUUACAUGAGGAUCACCCAUGUAUGUGUGGGAGUAAGUGUCUUAGGAUAUCUAUUAUUUAAUUAAAGAGAAGGAAGAUUGUUGU [JMF's solution 25] (Eterna round: R96, puzzle: Same State NG 3) : 102

Documented apparent KD of MS2 coat protein of GUAAUAAUGUAAGGAUAUACAUGAGGAUUUCUCGUAGAAGGUACAAGACAUGAGGAUCACCCAUGUGUCGCUCAGAAGAGCGUA [Mat - Same State NG 1 - JL mod - D16] (Eterna round: R96, puzzle: Same State NG 1) : 463

Documented apparent KD of MS2 coat protein of GCCAACUAAUGAGGAUAUGGCACCUUAUUGGUGCCAGAAGGCAUGUCAAAAGACAUGAGGAUCACCCAUGUAUUAUAGUUGGCA [Mat - Same State NG 1 - JL mod - D73] (Eterna round: R96, puzzle: Same State NG 1) : 304

Documented apparent KD of MS2 coat protein of GGAGCCGGCCUAGGAUAUUUCAUAAAAAUACAUGAGGAUCACCCAUGUAGGCCAGAAGGCCUUGGGAAGAAGGAGGUCGGCUCC [Loop Effect - U29] (Eterna round: R96, puzzle: Same State NG 2) : 17.3

Documented apparent KD of MS2 coat protein of CCUGCGAUAAGCGAGCGAACAUGAGGAUCACCCAUGUGGCGGCAGGAUAUGGGUGACCCAGCGACUCAGAAGGGCCGAAGCUAA [Eternabot solution 8] (Eterna round: R96, puzzle: Same State NG 3) : 23.2

Documented apparent KD of MS2 coat protein of AACCAGAGAAAACAACUCUGACAUGAGGAUCACCCAUGUACACAGGAUAUCAGCCCGAAAAGGGCUGAGAAGGGUGGCCGAGUG [Beveat] (Eterna round: R96, puzzle: Same State NG 3) : 33.9

Documented apparent KD of MS2 coat protein of AACAGUCGGCGAGGAUAUGGACGUACGGACUAACCCGCGCGGCUCACAUGAGGAUCACCCAUGUUCUAGAAGGCGCCACUGAAA [Xeorendi] (Eterna round: R96, puzzle: Same State NG 2) : 50.9

Documented apparent KD of MS2 coat protein of AGCGUCCACACAGGAUAUCACCUGCACUACAGGUGAGAAGGGUGACCGGUGCGCAAUAACGACAUGAGGAUCACCCAUGUAAAA [Enraquleer] (Eterna round: R96, puzzle: Same State NG 1) : 384

Documented apparent KD of MS2 coat protein of ACGCAAAAUGGAGGAUAUGGAGCCUUAUUGGCUCCAGAAGGUCAAAACAUGAGGAUCACCCAUGUGCGGUGGUCUAAUGACCAC [Eli NG1ss - 46] (Eterna round: R96, puzzle: Same State NG 1) : 172

Documented apparent KD of MS2 coat protein of CGCAUCCUUGUUACAUGAGGAUCACCCAUGUUUUCGAGUGGAGAGGAUAUCGUAACAGUAUUUUUCGAGAAGGCUCUAUAGUAU [JR_SSNG3_Sub081] (Eterna round: R96, puzzle: Same State NG 3) : 57.3

Documented apparent KD of MS2 coat protein of GUGGAGGGUUGAGGAUAUUGAUUACAUAUGUUUAACAUGAGGAUCACCCAUGUGGGUUGCGGUUUCGAGAAGGUAGGUUGCUGG [salish99_SSNG2_r04_041] (Eterna round: R96, puzzle: Same State NG 2) : 132
